The measurements presented in this section are drawn from paper PMC9172056.

Assay: in vitro
Conditions: cat
measurement.kind: CC50

The examples below pair each entry with its known result.
[[record]]
compound = "CC(C)C[C@H](NC(=O)OC1CC2(C1)CN(C(=O)OC(C)(C)C)C2)C(=O)N[C@H](C=O)C[C@H]1CCNC1=O"
recorded_result = "> 100 µM"

[[record]]
compound = "CC(C)C[C@H](NC(=O)OC1CC2(CCN(C#N)CC2)C1)C(=O)N[C@@H](C[C@H]1CCNC1=O)C(O)S(=O)(=O)O (stereo partly drawn) [Compound 11c]"
recorded_result = "> 100 µM"

[[record]]
compound = "[2H]C([2H])(OC(=O)N[C@@H](CC(C)C)C(=O)N[C@@H](C[C@H]1CCNC1=O)C(O)S(=O)(=O)[O-])C1CN(C(=O)OC(C)(C)C)C1.[Na+] (stereo partly drawn) [Compound 18c]"
recorded_result = "> 100 µM"


Exam item: Given the compound CC(C)C[C@H](NC(=O)OC1CC2(C1)CN(C(=O)OC(C)(C)C)C2)C(=O)N[C@@H](C[C@H]1CCNC1=O)C(O)S(=O)(=O)O (stereo partly drawn) , what is its reported CC50?
Marked response: > 100 µM

Exam item: Follow-up item: CC(C)C[C@H](NC(=O)OCC1CN(S(C)(=O)=O)C1)C(=O)N[C@@H](C[C@H]1CCNC1=O)C(O)S(=O)(=O)O (stereo partly drawn) [Compound 17c]
Marked response: > 100 µM

Exam item: Input CC(C)C[C@H](NC(=O)OC1CC2(CCN(C(=O)OC(C)(C)C)CC2)C1)C(=O)N[C@@H](C[C@H]1CCNC1=O)C(O)S(=O)(=O)O (stereo partly drawn)
Marked response: > 100 µM
